Ref: PubChem BioAssay

target.entity: Follistatin-related protein 3 (Homo sapiens)
assay.remarks: FSTL3 binders on small-molecule microarrays, primary screen, biochemical, small-molecule microarray, 635 nm fluorescence (AID 1105);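 also: score merges emission near 667 nm and signal to noise per printed spot across three slides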
study.conditions: FSTL3 binding, higher = more signal
readout.name: composite z-score
// no unit, no text: just the number

[in] # input compound: COCCOC(=O)N1C(=O)[C@@]2(c3cc(C#CC4(O)CCCCCC4)ccc31)[C@H](c1ccc(O)cc1)N1[C@H](c3ccccc3)[C@H](c3ccccc3)OC(=O)[C@H]1[C@@H]2C(=O)NC[C@H](O)c1ccccc1 ; wanted: its composite z-score
[out] 0.936

[in] Also CC(C)(C)OC(=O)CC[C@@]1(C(=O)NCc2ccccc2)N=C(c2ccc(OCCCO)cc2)O[C@@H]1c1ccccc1N=[N+]=[N-] ?
[out] 1.26

[in] Next record, please: CC(C)(C)N1CC=CC23O[C@@H]4C=CCCOC(=O)C4[C@H]2C(=O)N(CCO)[C@@H]3C1=O (some centres not stated)
[out] -0.959

[in] Try CN1C(=O)C2C=CC(C(O)c3cccc(O)c3)N(Nc3ccccc3)C2C1=O (configuration not stated) next.
[out] -0.0255

[in] Next: COC(=O)[C@@]1(Cc2ccc(OC)cc2)[C@H]2c3cc(C(=O)N4CCCC4)n(Cc4c(-c5ccccc5)noc4C)c3C[C@H]2CN1C(=O)c1ccccc1
[out] 1.2

[in] Next up: C[N+](C)(C)CCCC[C@@H]1NC(=O)[C@H]2C[C@@H](C(=O)NCCCCCCN)[C@@H](c3ccc(O)cc3)N2C1=O
[out] -0.0878

[in] Same thing, different compound: CC1=C[C@@]2(CO)C(=O)[C@]3(CO3)[C@@H]1[C@H]1[C@]2(C)C=C(CO)C(=O)[C@]12CO2
[out] 0.951

[in] Let us now turn to CC(C)C(CO)N1C(=O)[C@@H]2C3C(=O)OCCC/C=C\[C@H]3OC23C=CCN(C(C)(C)C)C(=O)[C@@H]13 (some centres not stated)
[out] -0.504

[in] Cool, now COc1ccc(NC(=O)O[C@H]2[C@H](OC(=O)Nc3ccccc3)[C@H](OC(=O)Nc3ccccc3)[C@@H](OC)O[C@@H]2CO)cc1
[out] 0.806

[in] Can you handle C=CCC(OC(C)=O)[C@@H]1[C@@H](N(Cc2ccc(-c3ccccc3)cc2)C(=O)Cc2ccc(F)cc2)c2cc(OCCCO)ccc2N1C(=O)Cc1ccc(OC)cc1 (some centres not stated) next?
[out] 0.359

* * *

# z-score values compiled below
assay.remarks: P. aeruginosa biofilm formation inhibitors, primary screen, PAO1 strain, BacTiter-Glo luminescence, LB-PBS (AID 1144)
study.conditions: 12 h, higher = more signal
Activity calls are given as the source filed them. The rule behind the calls is not given here.

Here's what some known entries look like.
[
  {
    "molecule": "NC(N)=NCCCn1cc(CNC(=O)[C@@H](N)Cc2ccccc2)nn1",
    "z-score": "1.6 (inactive)"
  },
  {
    "molecule": "CCOC(=O)C[C@H]1[C@H](OC(=O)c2cc3ccccc3oc2=O)[C@@H](NC(=O)Cc2ccc(OC)cc2)c2cc(OCCCO)ccc2N1C(=O)c1ccc2ccccc2n1",
    "z-score": "0.177 (inactive)"
  },
  {
    "molecule": "COc1ccc([Si](C)(C)[C@@H]2[C@@H](CCn3cc([C@H](O)c4ccccc4)nn3)O[C@]3(C(=O)N(Cc4ccc(N5CCC5=O)cc4)c4ccccc43)[C@H]2C)cc1",
    "z-score": "-1.38 (inactive)"
  }
]

[in] Consider the molecule shown here: CN(C)C(=O)[C@]1(CCS(=O)(=O)c2ccccc2)N=C(c2ccc(OCCCO)cc2)O[C@@H]1c1ccccc1N=[N+]=[N-] What is its recorded z-score?
[out] 0.0474 (inactive)

[in] Note, next up: NCCCCCNC(=O)[C@@H]1C[C@@H]2C(=O)NCC(=O)N2[C@@H]1c1cccc(OCCO)c1
[out] 0.771 (inactive)

[in] And the next one, C=CC[C@]1(C(=O)O)COC(c2ccc(OCCCO)cc2)=N1 ?
[out] -0.852 (inactive)

[in] Record: CC(C)C[C@@H]1NC(=O)[C@@H]2C[C@H](C(=O)NCCCCN(C)C)[C@H](c3cccc(OCCO)c3)N2C1=O
[out] -1.25 (inactive)

[in] Thanks! And CN1C(=O)C2C=CC(C(O)c3cccc(O)c3)N(Nc3ccccc3)C2C1=O (centres undefined) ?
[out] 0.373 (inactive)

[in] And the next one, COc1ccc(CCNC(=O)[C@@H]2c3ccccc3C(=O)N(Cc3cc(C(F)(F)F)cc(C(F)(F)F)c3)[C@H]2c2ccc(CO)cc2)cc1 ?
[out] 0.703 (inactive)

[in] Repeat for the following molecule: COCCOC(=O)N1C(=O)[C@@]2(c3cc(C#CC4=CCCCC4)ccc31)[C@H](c1ccc(OCCO)cc1)N1[C@H](c3ccccc3)[C@H](c3ccccc3)OC(=O)[C@H]1[C@@H]2C(=O)N1CCN(c2ncccn2)CC1
[out] 1.04 (inactive)

[in] Next up: [N-]=[N+]=Nc1ccccc1[C@H]1OC(c2ccc(OCCCO)cc2)=N[C@@]1(CCS(=O)(=O)c1ccccc1)C(=O)NCCN1CCOCC1
[out] 1.38 (inactive)

[in] Can you check CCOC(=O)C1=CC[C@@H](c2cccc(Cl)c2)N(S(=O)(=O)c2ccc(C)cc2)C1 next?
[out] -0.06 (inactive)

[in] Try this molecule too: Cc1cc(C)c(C(O)C2C=CC3C(=O)N(c4ccccc4)C(=O)C3N2Nc2ccc(C(C)C)cc2)c(C)c1 (centres undefined)
[out] -0.342 (inactive)

[in] // same read-out, input: CCOC(=O)C1=CC[C@@H](c2ccccc2C(F)(F)F)N(S(=O)(=O)c2ccc(C)cc2)[C@H]1c1ccc(C#N)cc1
[out] -0.29 (inactive)

[in] Now the same for COc1ccc(CCN2C(=O)[C@@]3(Cc4ccccc42)c2ccccc2C(=O)N(Cc2ccccc2OC)[C@H]3c2ccc(CO)cc2)cc1
[out] 0.0431 (inactive)

[in] And C=CC1c2cc(O)c(OC)cc2CCN1Cc1cc2c(cc1Br)OCO2 (centres undefined) ?
[out] 0.0937 (inactive)

[in] Lookup O=C(NCC(F)(F)F)[C@@H]1c2ccccc2C(=O)N(Cc2ccccc2C(F)(F)F)[C@H]1c1ccc(CO)cc1
[out] 0.266 (inactive)

[in] Entry to check: COCCOC(=O)N1C(=O)[C@@]2(c3cc(C#CC4=CCCCC4)ccc31)[C@H](C(N)=O)[C@H]1C(=O)O[C@H](c3ccccc3)[C@H](c3ccccc3)N1[C@@H]2c1ccccc1OCCO
[out] -0.413 (inactive)

[in] Entry to check: CCOC(=O)c1ccc(NC(=O)O[C@H]2[C@H](OC(=O)Nc3ccc4c(c3)OCO4)[C@H](OC(=O)Nc3ccc4c(c3)OCO4)[C@@H](OC)O[C@@H]2CO)cc1
[out] 1.55 (inactive)

[in] Same question for C=CC[C@@]1(C(=O)N2CCOCC2)N=C(c2ccc(OCCCO)cc2)O[C@@H]1c1ccccc1CN=[N+]=[N-] please.
[out] 0.887 (inactive)

[in] Repeat for the following molecule: COCC1=C2[C@@H](CCc3ccccc3)OB(O)C[C@@H]2[C@@H]2C(=O)C=CC(=O)[C@@H]2C1
[out] 0.353 (inactive)

[in] Can you handle Cc1ccc(S[C@]2(C(=O)NCC(F)(F)F)CC(=O)N(Cc3ccccc3)[C@@H]2c2ccc(CO)cc2I)cc1 next?
[out] 0.479 (inactive)

* * *

# composite z-score values compiled below
assay.remarks: small-molecule binders of probe aNOTCH2, primary screen, biochemical, small-molecule microarray, 635/667 nm fluorescence (AID 1121);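 also: score merges feature fluorescence read at 667 nm with its signal to noise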
study.conditions: higher = more signal
Give your answer as a number; write no unit.

[
  {
    "compound": "COCCCNC(=O)[C@]1(CCS(=O)(=O)c2ccccc2)N=C(c2ccc(OCCCO)cc2)O[C@@H]1c1ccccc1N=[N+]=[N-]",
    "composite z-score": -0.143
  },
  {
    "compound": "Cc1ccc(S[C@]2(C(=O)NCC(F)(F)F)CC(=O)N(Cc3ccccc3)[C@@H]2c2ccc(CO)cc2I)cc1",
    "composite z-score": -0.183
  },
  {
    "compound": "O=C1OCCC/C=C\\[C@H]2OC34C=CCN(CCN5CCOCC5)C(=O)[C@H]3N(CCCCCCO)C(=O)[C@@H]4C12 (some centres not stated)",
    "composite z-score": -0.144
  }
]

[in] Which composite z-score value belongs to NC(=O)NCC#Cc1ccc2c(c1)[C@]1(C(=O)N2)[C@H](C(=O)NC[C@H](O)c2ccccc2)[C@H]2C(=O)O[C@H](c3ccccc3)[C@H](c3ccccc3)N2[C@@H]1c1ccc(OCCO)cc1 ?
[out] -0.0449

[in] CCCC[C@@H]1C[C@H]1[C@@H](NC(=O)Cc1ccccc1)c1ccc(-c2ccccc2)cc1 ?
[out] -0.0242

[in] Cool, now CCCCCCCCCCC(O)C1C=CC2C(=O)N(C)C(=O)C2N1Nc1ccc([N+](=O)[O-])cc1[N+](=O)[O-] (configuration not stated)
[out] 0.0807

[in] Also check C=C(/C(=C/C[C@H](OC(C)=O)c1ccccc1OCCO)c1cc(C(=O)OC)ccc1OC)C(C)C
[out] -0.173
